System: SW-620 colon
Assay: NCI-60 one-dose screen, 48 h (100 = growth as untreated, 0 = no growth, -100 = all killed)
Conditions: 10 µM unless noted
The panel holds about 83,000 compounds, 20% with a hit somewhere; the sample as a whole holds those more often.
// NB: equality with 60% counts as Criterion not met; only growth strictly below is Criterion met

Take a look at these entries with their results.
[
  {
    "compound": "COc1ccc(O)c(N=Nc2nccs2)c1",
    "discrete-label": "Criterion not met"
  },
  {
    "compound": "O=[N+]([O-])c1ccc2c(c1)Cc1cc(F)ccc1-2",
    "discrete-label": "Criterion not met"
  },
  {
    "compound": "Oc1ccc(N=Cc2ccccc2O)cc1",
    "discrete-label": "Criterion not met"
  },
  {
    "compound": "C=C(C)C(=O)Nc1ccc(NC(C)C)cc1",
    "discrete-label": "Criterion not met"
  },
  {
    "compound": "Cc1ccc2c(C(C[N+](=O)[O-])c3ccccc3F)c(-c3ccccc3)[nH]c2c1 (configuration not stated)",
    "discrete-label": "Criterion met"
  }
]

Exam item: Is growth of CC[C@@H](C(=O)[C@@H](C)[C@@H](O)[C@H](C)[C@@H]1O[C@@H]([C@@H](CC)C(=O)O)CC[C@@H]1C)[C@H]1OC2(C=C[C@@H](O)[C@]3(CC[C@@](C)([C@H]4CC[C@](O)(CC)[C@H](C)O4)O3)O2)[C@H](C)C[C@@H]1C (some centres not stated) strictly below 60%?
Marked response: Criterion met

###

System: NCI-H322M lung
Test: NCI-60 one-dose screen, 48 h (100 = growth as untreated, 0 = no growth, -100 = all killed)
Settings: 10 µM unless noted
The panel holds about 83,000 compounds, 20% with a hit somewhere; the sample as a whole holds those more often.
The following compounds are listed with their measured growth values.
The figure you give is taken to be in %; do not add the unit.

// known answers, use as guide
[
  {
    "sample-smiles": "O=C(O)c1ccc(NC(=O)c2ccc(-c3cccc([N+](=O)[O-])c3)o2)cc1",
    "growth, %": 95
  },
  {
    "sample-smiles": "O=CNc1ccc2c(c1)Cc1cccc(NC=O)c1-2",
    "growth, %": 106
  },
  {
    "sample-smiles": "Oc1ccc(N=Cc2ccccc2O)cc1",
    "growth, %": 90.6
  }
]

Exam item: Lookup: growth / NCI-H322M lung / `c1ccc2[nH]c(-c3ccc(Nc4nc(N5CCCC5)nc5[nH]ncc45)cc3)nc2c1`
Marked response: 6.53

###

The following molecules are listed with their measured growth values.
Test system: SNB-19 CNS
Assay: NCI-60 one-dose screen, 48 h (100 = growth as untreated, 0 = no growth, -100 = all killed)
Conditions: 10 µM unless noted
Compounds without any hit were thinned out: in the full panel of roughly 83,000, 20% have a hit.
The figure you give is taken to be in %; do not add the unit.

// known answers, use as guide
[
  {
    "molecule": "C=C(C)C(=O)Nc1ccc(NC(C)C)cc1",
    "u": "%",
    "growth": 105
  },
  {
    "molecule": "COc1ccc(C2CC(c3ccc4ccccc4c3)=NN2/C=C2\\SC(=S)N(NC(=O)Cc3ccccc3Nc3c(Cl)cccc3Cl)C2=O)cc1 (stereo not given)",
    "u": "%",
    "growth": 32
  },
  {
    "molecule": "COc1cc2c(cc1-c1c(C)noc1C)ncc1nc(C3CCC(F)(F)CC3)n([C@H](C)COC(F)F)c12",
    "u": "%",
    "growth": 47.7
  }
]

Exam item: Which growth is listed for `NNCCc1ccc(NC(=O)CCCc2ccc(/C=C/C(=O)NO)cc2)cc1` ?
Marked response: 58.5

Exam item: Which growth is listed for `CCCCC[C@H]1C/C=C2/C(=O)C=C[C@@H]2C/C=C\CCCC(=O)O1` ?
Marked response: 1.16

###

Tested on: SW-620 colon
Assay: NCI-60 one-dose screen, 48 h (100 = growth as untreated, 0 = no growth, -100 = all killed)
Settings: 10 µM unless noted
Compounds without any hit were thinned out: in the full panel of roughly 83,000, 20% have a hit.
Please enter true where growth is greater than or equal to 90%, and false where it is lower.

Take a look at these entries with their results.
[
  {
    "sample-smiles": "NCCNc1nc(Nc2ccc(-c3nc4ccccc4[nH]3)cc2)c2cn[nH]c2n1",
    "discrete-label": "false"
  },
  {
    "sample-smiles": "CC(=O)Nc1ccc(-n2c(O)c(/C=N/NC(=O)Cc3ccccc3Nc3c(Cl)cccc3Cl)sc2=S)cc1",
    "discrete-label": "true"
  },
  {
    "sample-smiles": "C(=N/Nc1ncc(-c2cc3cc(-c4ccccc4)ccc3o2)s1)/c1cccs1",
    "discrete-label": "true"
  },
  {
    "sample-smiles": "Cc1ccc(OC(=O)c2ccc(Cl)cc2)cc1",
    "discrete-label": "false"
  }
]

Exam item: Confirm if growth reported for the compound `COc1ccc(C(=O)/C=C/c2cccnc2Nc2cc(OC)c(OC)c(OC)c2)cc1` is 90% or above.
Marked response: false

###

System: RXF 393 renal
Test: NCI-60 one-dose screen, 48 h
Settings: 10 µM unless noted
Protocol: Cells are grown in 96 well plates and exposed to the test compound for 48 hours. Compounds are tested at a single concentration, which is 10^-5 M for most compounds. The reported endpoint is percent growth (GI% or GIPRCNT), where numbers from 0 - 100% represent growth inhibition, and numbers from -100% - 0 represent cell death. For example, a value of 40 represents 60% growth inhibition. A value of 0 means no net growth occurred over the course of the experiment. […]
About 83,000 compounds went through this panel and 20% of them were active in at least one assay; those are over-represented in the sample as a whole. Active and inactive are the calls of the source. How the source made its calls: active means growth percent below 10; inactive means the rest.
Thanks in advance; please answer with one of these: active, inactive

[
  {
    "sample-smiles": "Cc1ccc(O)c(N2C(=NCc3ccco3)NS(=O)(=O)c3cnccc32)c1",
    "discrete-label": "inactive"
  }
]

Exam item: Given `O=S(=O)(Nc1ccc(I)cc1F)c1ccc(-c2cnc(C3CC3)o2)cc1` , state the outcome it received in this test.
Marked response: inactive

Exam item: Given `CCOc1nc(-c2ccccc2)cc2c(O)c(C(=O)O)[nH]c(=O)c12` , state the outcome it received in this test.
Marked response: active

###

Test system: NCI/ADR-RES ovarian
Test: NCI-60 one-dose screen, 48 h (100 = growth as untreated, 0 = no growth, -100 = all killed)
Details: 10 µM unless noted
The panel holds about 83,000 compounds, 20% with a hit somewhere; the sample as a whole holds those more often.
The following molecules are listed with their measured growth values.
The figure you give is taken to be in %; do not add the unit.

// known answers, use as guide
[
  {
    "molecule": "CN1C(=O)C2(SCC(C(=O)NCc3ccccc3)N2C(=O)C2CCCCC2)c2ccccc21 (centres undefined)",
    "endpoint-value": 94.2
  },
  {
    "molecule": "Cc1cc(N2CCCCC2)nc(NC2CCCC(Nc3ccnc4cc(Cl)ccc34)C2)n1 (centres undefined)",
    "endpoint-value": -41.8
  },
  {
    "molecule": "C=C(C)[C@@H]1CC[C@]2(C(N)=O)CC[C@]3(C)[C@H](CC[C@@H]4[C@@]5(C)C/C(=C/c6ccco6)C(=O)C(C)(C)[C@@H]5CC[C@]43C)[C@@H]12",
    "endpoint-value": 96.6
  },
  {
    "molecule": "Cc1[nH]c(-c2cc(N)ccc2Cl)c2c1C(=O)CCCC2",
    "endpoint-value": 33
  },
  {
    "molecule": "Oc1ccc(N=Cc2ccccc2O)cc1",
    "endpoint-value": 98.2
  }
]

Exam item: Lookup: growth / NCI/ADR-RES ovarian / `CC1=CC(C)(C)Nc2ccc(Cc3ccc4c(c3)C(C)=CC(C)(C)N4)cc21`
Marked response: 100

Exam item: Lookup: growth / NCI/ADR-RES ovarian / `COc1ccc(Nc2c3c4c(cccc4[nH]c2=O)C(=O)c2ccccc2-3)cc1`
Marked response: 0.0341

Exam item: Lookup: growth / NCI/ADR-RES ovarian / `Cc1cc(C)c2nc3nc(C)cc(C)c3c(N)c2c1`
Marked response: 30.9

Exam item: Lookup: growth / NCI/ADR-RES ovarian / `Cc1cc2nc(NC(=O)CN3CCN(CCN4C(=O)c5cccc6cccc(c56)C4=O)CC3)sc2cc1C`
Marked response: 79

###

Tested on: KM12 colon
Assay: NCI-60 one-dose screen, 48 h
Conditions: 10 µM unless noted
Compounds without any hit were thinned out: in the full panel of roughly 83,000, 20% have a hit. Activity calls are given as the source filed them. How the source made its calls: active means growth percent below 10; inactive means the rest.
Thanks in advance; please answer with one of these: active, inactive

Take a look at these entries with their results.
[
  {
    "compound": "O=C(CCl)Oc1ccc(-c2ccccc2)c(Br)c1",
    "test-system": "KM12 colon",
    "discrete-label": "inactive"
  },
  {
    "compound": "CC[N+](CC)=c1sc2c(s1)C(c1ccc(Cl)cc1)Oc1ccc(Cl)cc1-2 (stereo unspecified)",
    "test-system": "KM12 colon",
    "discrete-label": "active"
  }
]

Exam item: Given `COc1cccc(/C=C2\Oc3cc(OCCN4CCCC4)ccc3C2=O)c1` , state the outcome it received in this test.
Marked response: inactive

Exam item: Given `COc1cc(-c2nn(C)nc2-c2cc3ccccc3s2)cc(OC)c1OC` , state the outcome it received in this test.
Marked response: inactive
